# Tested on: T1, full length monkey MSR1 on HEK293.mfMSR1 cells (Macaca fascicularis, UniProt A0A2K5UWE2 1-451)
# T1 construct: whole, on cells
# T1 sequence: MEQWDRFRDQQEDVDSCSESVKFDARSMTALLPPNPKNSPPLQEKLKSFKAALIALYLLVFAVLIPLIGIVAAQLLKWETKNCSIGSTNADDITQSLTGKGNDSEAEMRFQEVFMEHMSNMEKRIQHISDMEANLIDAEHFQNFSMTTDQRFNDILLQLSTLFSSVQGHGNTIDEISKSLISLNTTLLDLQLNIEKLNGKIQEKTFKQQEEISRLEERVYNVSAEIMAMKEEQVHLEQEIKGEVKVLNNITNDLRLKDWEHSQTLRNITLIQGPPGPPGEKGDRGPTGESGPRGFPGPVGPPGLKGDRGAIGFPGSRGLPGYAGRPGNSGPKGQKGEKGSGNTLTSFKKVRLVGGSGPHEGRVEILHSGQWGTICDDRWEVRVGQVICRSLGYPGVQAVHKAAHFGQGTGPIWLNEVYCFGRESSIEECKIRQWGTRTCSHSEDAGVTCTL
# Protocol notes: ECL cell binding, HEK293.mfMSR1 cells, 11 nM
Recorded metric: ratio of binding signal (RLU) to isotype control (fold)
Dear colleague, please return just the value in fold, with no unit written.

In: Item under review: H2aM25695N (antibody, mouse IgG2a, V domains shown, mouse IgG2a Fc) VH: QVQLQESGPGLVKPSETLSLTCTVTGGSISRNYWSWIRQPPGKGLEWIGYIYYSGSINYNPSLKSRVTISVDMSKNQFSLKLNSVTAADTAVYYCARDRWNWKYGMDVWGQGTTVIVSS VL: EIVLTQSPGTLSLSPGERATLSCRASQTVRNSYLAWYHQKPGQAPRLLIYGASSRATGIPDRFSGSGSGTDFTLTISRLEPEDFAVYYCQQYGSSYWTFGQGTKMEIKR . Reported ratio of binding signal (RLU) to isotype control?
Out: 45
